Values were extracted from BigSolDB 2.1.

- conditions_used: in n-butanol, 298.15 K
endpoint_label: solubility (mole fraction)

1. Cc1cc([N+](=O)[O-])ccc1N: 0.0118

---

- conditions_used: in acetone, 295.65 K
endpoint_label: solubility (mole fraction)

1) Cc1cc([N+](=O)[O-])ccc1N: 0.12

---

- conditions_used: in cyclohexane, 298.15 K
endpoint_label: solubility (mole fraction)

1. Cc1cc([N+](=O)[O-])ccc1N: 6.13e-05

---

- conditions_used: in cyclohexane, 288.15 K
endpoint_label: solubility (mole fraction)

1) Cc1cc([N+](=O)[O-])ccc1N: 3.37e-05

---

- conditions_used: in acetonitrile, 308.15 K
endpoint_label: solubility (mole fraction)

1. Cc1cc([N+](=O)[O-])ccc1N: 0.0747

---

- conditions_used: in isopropanol, 305.65 K
endpoint_label: solubility (mole fraction)

1. Cc1cc([N+](=O)[O-])ccc1N: 0.0142

---

- conditions_used: in ethyl acetate, 295.65 K
endpoint_label: solubility (mole fraction)

1. Cc1cc([N+](=O)[O-])ccc1N: 0.103

---

- conditions_used: in ethanol, 293.15 K
endpoint_label: solubility (mole fraction)

1) Cc1cc([N+](=O)[O-])ccc1N: 0.0127

---

- conditions_used: in 2-butanone, 280.65 K
endpoint_label: solubility (mole fraction)

1) Cc1cc([N+](=O)[O-])ccc1N: 0.0899

---

- conditions_used: in isopropanol, 290.65 K
endpoint_label: solubility (mole fraction)

1) Cc1cc([N+](=O)[O-])ccc1N: 0.00781

---

- conditions_used: in n-butanol, 280.65 K
endpoint_label: solubility (mole fraction)

1) Cc1cc([N+](=O)[O-])ccc1N: 0.00552

---

- conditions_used: in toluene, 293.15 K
endpoint_label: solubility (mole fraction)

1. Cc1cc([N+](=O)[O-])ccc1N: 0.00317

---

- conditions_used: in methanol, 300.65 K
endpoint_label: solubility (mole fraction)

1. Cc1cc([N+](=O)[O-])ccc1N: 0.018
